Please provide measured Hb for the entries that follow.
- Organism: Rattus norvegicus
- ASSAY SUMMARY: Open TG-GATES - Regimen: Single
- Assay type: toxicity, organism-based, Sprague-Dawley
- Parameters: regimen Single, gender Male, age 6 weeks
- ASSAY CONDITIONS: in vivo, po, 1000 mg/kg, 6 h, tissue Blood, route gavage, dose level High
Write down the numeric answer in g/dL and omit the unit.

What does the record list as Hb for NC(N)=Nc1nc(CSCCC(N)=NS(N)(=O)=O)cs1 ?
13.4

Item under review: CCOC(=O)CCC(=O)O[C@H]1[C@H](O[C@@H]2[C@@H](C)[C@H](O[C@H]3C[C@@](C)(OC)[C@@H](O)[C@H](C)O3)[C@@H](C)C(=O)O[C@H](CC)[C@@](C)(O)[C@H](O)[C@@H](C)C(=O)[C@H](C)C[C@@]2(C)O)O[C@H](C)C[C@@H]1N(C)C [ERYTHROMYCIN ETHYLSUCCINATE] . Reported Hb?
13.3

Requested read-out: Hb. Entry: COc1ccc2[nH]c([S+]([O-])Cc3ncc(C)c(OC)c3C)nc2c1 (centres undefined)
12.9

Field request: Hb | item: COC1=CC(=O)C[C@@H](C)[C@]12Oc1c(Cl)c(OC)cc(OC)c1C2=O
12.7

---

- Organism: Rattus norvegicus
- ASSAY SUMMARY: Open TG-GATES - Regimen: Single
- Assay type: toxicity, organism-based, Sprague-Dawley
- Design: regimen Single, gender Male, age 6 weeks
- ASSAY CONDITIONS: in vivo, po, 10 mg/kg, 9 h, tissue Blood, route gavage, dose level Low
Would you kindly list PT for each of these compounds?
Quick reminder: number only, in s, skip the unit.

Bench note: what PT did CN(C)CCN(Cc1cccs1)c1ccccn1 show?
15.9

Which PT is reported for this compound? CN(C)CCCN1c2ccccc2CCc2ccc(Cl)cc21 [CLOMIPRAMINE]
14.1

Find the recorded PT belonging to CC1=C(/C=C/C(C)=C/C=C/C(C)=C/CO)C(C)(C)CCC1 [RETINOL] and report it.
15.6

So what does the record say about PT for CN(C)CCCN1c2ccccc2CCc2ccccc21 [IMIPRAMINE] ?
15.9

---

- Species on record: Rattus norvegicus
- ASSAY SUMMARY: Open TG-GATES - Regimen: Single
- Assay type: toxicity, organism-based, Sprague-Dawley
- Set-up: regimen Single, gender Male, age 6 weeks
- ASSAY CONDITIONS: in vivo, po, 1000 mg/kg, 3 h, tissue Plasma, route gavage, dose level High
Provide the reported TG of each item.

Need TG, item COc1ccc2[nH]c([S+]([O-])Cc3ncc(C)c(OC)c3C)nc2c1 (stereo not given)
56.8 mg/dL

Reported TG for COC1=CC(=O)C[C@@H](C)[C@]12Oc1c(Cl)c(OC)cc(OC)c1C2=O : what is it?
122.6 mg/dL

Value lookup for TG; key = CC(C)OC(=O)C(C)(C)Oc1ccc(C(=O)c2ccc(Cl)cc2)cc1 [FENOFIBRATE]
28 mg/dL

For the compound shown here, NC(N)=Nc1nc(CSCCC(N)=NS(N)(=O)=O)cs1 , give the reported TG.
51.8 mg/dL

Quick one: TG for CCOC(=O)CCC(=O)O[C@H]1[C@H](O[C@@H]2[C@@H](C)[C@H](O[C@H]3C[C@@](C)(OC)[C@@H](O)[C@H](C)O3)[C@@H](C)C(=O)O[C@H](CC)[C@@](C)(O)[C@H](O)[C@@H](C)C(=O)[C@H](C)C[C@@]2(C)O)O[C@H](C)C[C@@H]1N(C)C [ERYTHROMYCIN ETHYLSUCCINATE] ?
40 mg/dL

---

- Organism: Rattus norvegicus
- ASSAY SUMMARY: Open TG-GATES - Regimen: Single
- Type: toxicity, organism-based, Sprague-Dawley
- Parameters: regimen Single, gender Male, age 6 weeks
- ASSAY CONDITIONS: in vivo, po, 0 mg/kg, 9 h, tissue Blood, route gavage, dose level Control
Kindly supply the reported APTT values for the records listed here.
The reply should contain only the number, in s.

Can you look up the measured APTT of CCOc1ccc(NC(=O)CC(C)O)cc1 (stereo unspecified) [BUCETIN] for me?
17.3

Please report the recorded APTT for CC1=C(/C=C/C(C)=C/C=C/C(C)=C/CO)C(C)(C)CCC1 [RETINOL] .
21.2

Need APTT, item CCOC(=O)CCC(=O)O[C@H]1[C@H](O[C@@H]2[C@@H](C)[C@H](O[C@H]3C[C@@](C)(OC)[C@@H](O)[C@H](C)O3)[C@@H](C)C(=O)O[C@H](CC)[C@@](C)(O)[C@H](O)[C@@H](C)C(=O)[C@H](C)C[C@@]2(C)O)O[C@H](C)C[C@@H]1N(C)C [ERYTHROMYCIN ETHYLSUCCINATE]
22.4

Please give the measured APTT for this molecule: CN(C)CCCN1c2ccccc2CCc2ccccc21 [IMIPRAMINE]
16

Please look up its APTT: CCCNC(=O)NS(=O)(=O)c1ccc(Cl)cc1 [CHLORPROPAMIDE]
18.5

Need APTT, item CN(C)CCCN1c2ccccc2CCc2ccc(Cl)cc21 [CLOMIPRAMINE]
16.7

Need APTT, item CN(C)CCN(Cc1cccs1)c1ccccn1
20.7

Could you share which APTT value was measured for NNC(=O)c1ccncc1 [ISONIAZID] ?
17.3

Look up APTT for this molecule: CC/C(=C(\c1ccccc1)c1ccc(OCCN(C)C)cc1)c1ccccc1 [TAMOXIFEN]
16.5

Fill blank: measured APTT of the molecule O=C(CCCN1CCC(O)(c2ccc(Cl)cc2)CC1)c1ccc(F)cc1 [HALOPERIDOL] is ____.
16.7

Give the measured APTT of COc1cc2c(c(OC)c1OC)-c1ccc(OC)c(=O)cc1[C@@H](NC(C)=O)CC2 [COLCHICINE] .
16.3

---

- Species on record: Rattus norvegicus
- ASSAY SUMMARY: Open TG-GATES - Regimen: Daily Repeat
- Type: toxicity, organism-based, Sprague-Dawley
- Design: regimen Daily Repeat, gender Male, age 6 weeks
- ASSAY CONDITIONS: in vivo, po, 100 mg/kg, […], tissue Blood, route gavage, dose level Low, time 14 day
MEASUREMENT LABEL: Plat (x10_4/uL)
Expressed in x10_4/uL, but write only the number.

What does the data say about its Plat? Entry: NC(N)=Nc1nc(CSCCC(N)=NS(N)(=O)=O)cs1
111.6

Fill in: Plat of COC1=CC(=O)C[C@@H](C)[C@]12Oc1c(Cl)c(OC)cc(OC)c1C2=O is ___
129.7

Record request: Plat value, item CCOC(=O)CCC(=O)O[C@H]1[C@H](O[C@@H]2[C@@H](C)[C@H](O[C@H]3C[C@@](C)(OC)[C@@H](O)[C@H](C)O3)[C@@H](C)C(=O)O[C@H](CC)[C@@](C)(O)[C@H](O)[C@@H](C)C(=O)[C@H](C)C[C@@]2(C)O)O[C@H](C)C[C@@H]1N(C)C [ERYTHROMYCIN ETHYLSUCCINATE]
113.3

Item COc1ccc2[nH]c([S+]([O-])Cc3ncc(C)c(OC)c3C)nc2c1 (stereo not given) has what recorded Plat?
133

Please look up its Plat: CCOc1ccc(NC(=O)CC(C)O)cc1 (stereo not given)
116.5

---

- Organism: Rattus norvegicus
- ASSAY SUMMARY: Open TG-GATES - Regimen: Single
- Format: toxicity, organism-based, Sprague-Dawley
- Parameters: regimen Single, gender Male, age 6 weeks
- ASSAY CONDITIONS: in vivo, po, 30 mg/kg, 3 h, tissue Blood, route gavage, dose level Middle
MEASUREMENT LABEL: MCV (fL)
Write down the numeric answer in fL and omit the unit.

Would you kindly share the measured MCV for CN(C)CCCN1c2ccccc2CCc2ccc(Cl)cc21 ?
64.5

Name the reported MCV value associated with the molecule CC1=C(/C=C/C(C)=C/C=C/C(C)=C/CO)C(C)(C)CCC1
63.4

Which MCV reading was recorded for the molecule CN(C)CCCN1c2ccccc2CCc2ccccc21 ?
65.8

Return reported MCV; argument: CN(C)CCN(Cc1cccs1)c1ccccn1
65.9

---

- Species: Rattus norvegicus
- ASSAY SUMMARY: Open TG-GATES - Regimen: Single
- Format: toxicity, organism-based, Sprague-Dawley
- Set-up: regimen Single, gender Male, age 6 weeks
- ASSAY CONDITIONS: in vivo, po, 300 mg/kg, 6 h, tissue Blood, route gavage, dose level Middle
MEASUREMENT LABEL: Hb (g/dL)
Give your result in g/dL as a bare value.

Could you share which Hb value was measured for NC(N)=Nc1nc(CSCCC(N)=NS(N)(=O)=O)cs1 [FAMOTIDINE] ?
13.5

Query: Hb; subject: CCOC(=O)CCC(=O)O[C@H]1[C@H](O[C@@H]2[C@@H](C)[C@H](O[C@H]3C[C@@](C)(OC)[C@@H](O)[C@H](C)O3)[C@@H](C)C(=O)O[C@H](CC)[C@@](C)(O)[C@H](O)[C@@H](C)C(=O)[C@H](C)C[C@@]2(C)O)O[C@H](C)C[C@@H]1N(C)C [ERYTHROMYCIN ETHYLSUCCINATE]
13.1

So what's the measured Hb for this one? COC1=CC(=O)C[C@@H](C)[C@]12Oc1c(Cl)c(OC)cc(OC)c1C2=O [GRISEOFULVIN]
12.8

Fill blank: measured Hb of the compound COc1ccc2[nH]c([S+]([O-])Cc3ncc(C)c(OC)c3C)nc2c1 (centres undefined) [OMEPRAZOLE] is ____.
13.1
